# target-of-assay: Pseudotyped HIV vector
# test-description: Pseudotyped HIV vector expressing luciferase reporter assay
# Assay type: cell-based
# details: luciferase reporter following viral integration; read-out: IC50
pIC50: −log10 of the molar value.
assay-readout: pIC50

Quick check: pIC50 of C[C@H](O)CNC(=O)c1c(O)c2ncc(Cc3ccc(F)cc3)cc2n(CCN2CCCC2=O)c1=O ?
> 8.00
